The measurements presented in this section are drawn from the supplement of paper PMC11451515.

# Tested on: SEM cells
# MEASUREMENT_NOTES: cell viability relative to DMSO control; higher = less cytotoxic
# RUN_CONDITIONS: HPLM + 10% dialyzed FBS; 48 h; 1.71 µM
READOUT: cell viability (%)

compound="O=C(O)CSCC(=O)NC1CCSC1=O (stereo not drawn)" measured_result=102
compound=CCCCCCCCOc1ccccc1C(=O)Nc1ccc(C(=O)OCC[N+](C)(CC)CC)cc1 measured_result=96.6
compound=CC(C)(C)Cn1c(N)nc2ccc(-c3[nH]c(C(C)(C)C)nc3-c3ccc(F)cc3)nc21 measured_result=79.1
compound=CN(C)CC[C@H](CSc1ccccc1)Nc1ccc([S+](=O)([O-])NC(=O)c2ccc(N3CCN(Cc4ccccc4-c4ccc(Cl)cc4)CC3)cc2)cc1[N+](=O)[O-] measured_result=8.48
compound=C[C@H](NC(=O)Cc1cc(F)cc(F)c1)C(=O)N[C@@H]1C(=O)N(C)c2ccccc2-c2ccccc21 measured_result=106
compound=Nc1nc2ccc(OC(F)(F)F)cc2s1 measured_result=131
compound="COCCCOc1ccnc(C[S+]([O-])c2nc3ccccc3[nH]2)c1C (stereo not drawn)" measured_result=109
compound=CCc1c(O)cc(O)c(C(=O)c2ccc(OCCN3CCOCC3)c(OC)c2)c1CC(=O)N(CCOC)CCOC measured_result=103
